Test system: IGROV-1
test-summary: NCI tumour cell line growth inhibition, 48 h
Calls of active or inactive are those of the source. Rule as the data show it: active = GI50 up to about 1.1 µM and inactive = higher.
measure: GI50

compound | assay-system | GI50
O=C(O)/C=C/c1c[nH]c(=O)[nH]c1=O | IGROV-1 | > 250 µM (inactive)
Cc1ccc(C)n1-c1ccccc1C1C=Cn2c3c1c(=O)c(OC(C)C)c(OC(C)C)c-3n[nH]c2=O (stereo not given) | IGROV-1 | 30.1 µM (inactive)
CC1(O)CC2C(CC1SCCO)C2(C)C (stereo not given) | IGROV-1 | > 100 µM (inactive)

Please state recorded GI50 (tested on IGROV-1) of O=c1ccn(C2OC(COC3CCCCO3)C(OC3CCCCO3)C2OC2CCCCO2)c(=O)n1-c1ccccc1 (stereo not given) > 100 µM (inactive)

Now the compound CCN(CC)CCO/N=C1\CC[C@H]2[C@@H]3CCc4cc(OC)ccc4[C@H]3CC[C@]12C 3.26 µM (inactive)

====

Listed molecules paired with reported GI50
System: HOP-18
test-summary: NCI tumour cell line growth inhibition, 48 h
The source made the active and inactive calls. No stated cut-off is given here; in the data, active = GI50 up to about 1.1 µM and inactive = higher.

molecule | GI50
COc1cc2c(c(OC)c1OC)-c1ccc(OC)c(=O)cc1C(NC(=O)COc1ccccc1)CC2 (stereo unspecified) | > 100 µM (inactive)

// lookup GI50 for C=CCCCCC1CCC2CCC(CCCCC=C)N12 (stereo unspecified) 21.3 µM (inactive)

Now the molecule COC(=O)C1=C(C)N(NC(N)=O)C(C)(O)C12CCOC2=O (stereo unspecified) > 100 µM (inactive)

Now the molecule CN1C(=O)C(=CN(C)c2ccccc2)C(=O)N(C)C1=O 69.8 µM (inactive)

Now the molecule Cc1c(C(=O)/C=C/c2ccccc2Cl)[n+]([O-])c2ccccc2[n+]1[O-] 15 µM (inactive)

Now the molecule N#C/C(=C/c1ccco1)C(=O)c1ccccc1 > 100 µM (inactive)

====

Test system: UACC-62
test-summary: NCI tumour cell line growth inhibition, 48 h
Active and inactive are the calls of the source. No stated cut-off is given here; in the data, active = GI50 up to about 1.1 µM and inactive = higher.
Pick from active, inactive when you respond.

molecule | class-assignment
O=[N+]([O-])c1ccc(Cl)cc1N/N=C/c1cccc2cccnc12 | inactive
Nc1ccn(C2CC3OCC3O2)c(=O)n1 (configuration not stated) | inactive
COc1ccc2c(-c3ccc(O)cc3)c(Oc3ccc(Cl)cc3)c(=O)oc2c1 | inactive
CCCCCCCCCCCCOCCOCCOCCOCCOCCOCC(=O)NC(Cc1ccccc1)C(=O)Oc1ccc([N+](=O)[O-])cc1 (configuration not stated) | inactive
CO[C@@H](c1ccccc1)[C@H](O)[C@](O)(c1ccccc1)P(=O)(OC)OC | inactive
Cc1ccc(S(=O)(=O)OCC(=O)O)cc1 | inactive
S=C(N/N=C/c1ccccn1)N1CCCCCC1 | active
O=C1CCCCC/C=C2/CC[C@H](Sc3ccccc3)[C@@H]12 | inactive
Cc1ncc2c(n1)CCC1=C2OS(=O)(=O)CC1N(C)C (configuration not stated) | inactive
C=C1c2nc3ccccc3n2C=C(c2ccc(OC)cc2)N1c1ccc(OC)cc1 | inactive

Recorded call for CC1NOC(=O)C1/N=N/c1ccccc1Br (configuration not stated) ? inactive

Now the molecule Cn1nc(-c2ccccc2)c(C(=O)/C=C/c2ccc(Cl)cc2)c(N2CCCCC2)c1=O inactive

Now the molecule CC1(C)CCC2=C(O1)/C(=N\Nc1ccccc1)c1ccccc1C2=O inactive

Now the molecule COC(=O)C1=C(C(=O)OC)SC2(S1)C(C(=O)OC)=C(C(=O)OC)Sc1c2ss/c1=N/C(C)(C)C inactive

Now the molecule CC12CCC([C@H](C(O)C3CCCCC3)C1=O)C2(C)C (some centres not stated) inactive

Measured values drawn from ChEMBL document CHEMBL1201862 for this set.
